The measured values listed here are drawn from the supplement of paper PMC7877785.

test: self-splicing fitness, log relative to wild type (ln ratio); higher = more splicing; Tetrahymena group I intron in knt gene, E. coli kanamycin selection, DiMSum; sequences stand for … in CUCUCU…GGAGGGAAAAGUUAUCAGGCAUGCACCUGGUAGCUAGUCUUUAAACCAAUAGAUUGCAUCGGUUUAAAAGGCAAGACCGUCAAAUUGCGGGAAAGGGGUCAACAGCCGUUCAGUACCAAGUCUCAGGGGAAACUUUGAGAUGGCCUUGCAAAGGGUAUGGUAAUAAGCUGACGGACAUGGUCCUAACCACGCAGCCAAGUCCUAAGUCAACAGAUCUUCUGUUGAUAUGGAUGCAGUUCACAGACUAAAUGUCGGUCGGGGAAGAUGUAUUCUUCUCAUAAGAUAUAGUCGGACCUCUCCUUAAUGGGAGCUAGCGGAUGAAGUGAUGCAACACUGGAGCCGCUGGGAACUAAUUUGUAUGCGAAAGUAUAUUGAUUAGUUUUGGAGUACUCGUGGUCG;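 further: selection with 25 µg/mL kanamycin versus none on LB agar overnight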
experimentalSetup: 37 °C
Assign class by self-splicing fitness (ln): not lower than -0.7 means 1; lower than -0.7 means -1.

These recorded examples may help you get a feel for the data.
Q: Dear colleague, could you confirm whether `CCACAGCAAUAUUACGUUUG` has self-splicing fitness (ln) at or above -0.7?
A: 1

Q: Is it the case that `AAACAGCAAUAUUACGACCU` has self-splicing fitness (ln) reaching or exceeding -0.7?
A: 1

Q: Dear colleague, could you confirm whether `GUGAAGCAAUAUUACGAUGU` has self-splicing fitness (ln) at or above -0.7?
A: 1

New cases:
Q: State whether the measured self-splicing fitness (ln) reaches -0.7, counting equality as reaching it, for `CAAUAGCAAUAUUACGAUAG`
A: 1

Q: Quick check, self-splicing fitness (ln) >= -0.7? `UUUGAGCAAUAUUACGUGGU`
A: -1

* * *

test: self-splicing fitness, log relative to wild type (ln ratio); higher = more splicing; Tetrahymena group I intron in knt gene, E. coli kanamycin selection, DiMSum; sequences stand for … in CUCUCU…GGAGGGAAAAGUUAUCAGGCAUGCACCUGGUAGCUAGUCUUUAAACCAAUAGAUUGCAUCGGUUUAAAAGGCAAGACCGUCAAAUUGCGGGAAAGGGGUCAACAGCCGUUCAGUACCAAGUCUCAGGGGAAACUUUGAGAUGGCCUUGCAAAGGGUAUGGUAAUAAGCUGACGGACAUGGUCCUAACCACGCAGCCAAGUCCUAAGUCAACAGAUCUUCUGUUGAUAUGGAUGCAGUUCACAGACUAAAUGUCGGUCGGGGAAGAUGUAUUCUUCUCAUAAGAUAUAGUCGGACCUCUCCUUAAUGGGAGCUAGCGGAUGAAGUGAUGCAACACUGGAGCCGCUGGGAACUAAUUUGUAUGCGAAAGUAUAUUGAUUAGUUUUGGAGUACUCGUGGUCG
experimentalSetup: 37 °C
Cut-off -1 on self-splicing fitness (ln), inclusive. At or above means rule met; below means rule not met.

Observe how each entry below is paired with its result.
Q: Could you verify whether the entry `ACGAAGCAAUAUUACGGAUC` shows self-splicing fitness (ln) of no less than -1?
A: rule not met

Q: Given the entry `AUACAGCAAUAUUACGCCCU` , answer whether its self-splicing fitness (ln) meets or surpasses -1.
A: rule met

More entries:
Q: Form field: self-splicing fitness (ln) at least -1? Entry: `CUCGAGCAAUAUUACGCAGU`
A: rule not met

Q: self-splicing fitness (ln) >= -1 for `CAUCAGCAAUAUUACGCGUG` ?
A: rule not met

Q: Evaluate `AUGGAGCAAUAUUACGCCAA` : self-splicing fitness (ln) at minimum -1?
A: rule not met

Q: Confirm if self-splicing fitness (ln) reported for the sequence `UGUCAGCAAUAUUACGUCAA` is -1 or above.
A: rule met

Q: Record `GGACAGCAAUAUUACGUCCG` ; criterion: self-splicing fitness (ln) no lower than -1. Met?
A: rule not met

* * *

test: self-splicing fitness, log relative to wild type (ln ratio); higher = more splicing; Tetrahymena group I intron in knt gene, E. coli kanamycin selection, DiMSum; sequences stand for … in CUCUCU…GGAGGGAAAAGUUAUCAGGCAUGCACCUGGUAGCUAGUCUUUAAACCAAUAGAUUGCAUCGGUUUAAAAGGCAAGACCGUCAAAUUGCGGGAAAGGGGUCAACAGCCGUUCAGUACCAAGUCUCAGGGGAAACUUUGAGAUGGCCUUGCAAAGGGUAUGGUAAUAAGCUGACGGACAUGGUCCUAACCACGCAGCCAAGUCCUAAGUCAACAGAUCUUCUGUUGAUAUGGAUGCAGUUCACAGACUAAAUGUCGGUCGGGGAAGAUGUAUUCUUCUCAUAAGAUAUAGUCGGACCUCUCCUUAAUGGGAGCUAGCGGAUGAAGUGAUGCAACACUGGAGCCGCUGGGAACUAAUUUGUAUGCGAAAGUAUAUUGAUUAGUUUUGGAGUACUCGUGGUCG
experimentalSetup: 37 °C
readout: self-splicing fitness (ln)
// keep it numeric: no unit symbol after the value

Q: Identify measured self-splicing fitness (ln) associated with `CCCCAGCAAUAUUACGACGA`
A: -2.68

Here's the next entry for you.
Q: Write down self-splicing fitness (ln) measured for item `CGUAAGCAAUAUUACGCUCU`
A: -1.35

* * *

test: self-splicing fitness, log relative to wild type (ln ratio); higher = more splicing; Tetrahymena group I intron in knt gene, E. coli kanamycin selection, DiMSum; sequences stand for … in CUCUCU…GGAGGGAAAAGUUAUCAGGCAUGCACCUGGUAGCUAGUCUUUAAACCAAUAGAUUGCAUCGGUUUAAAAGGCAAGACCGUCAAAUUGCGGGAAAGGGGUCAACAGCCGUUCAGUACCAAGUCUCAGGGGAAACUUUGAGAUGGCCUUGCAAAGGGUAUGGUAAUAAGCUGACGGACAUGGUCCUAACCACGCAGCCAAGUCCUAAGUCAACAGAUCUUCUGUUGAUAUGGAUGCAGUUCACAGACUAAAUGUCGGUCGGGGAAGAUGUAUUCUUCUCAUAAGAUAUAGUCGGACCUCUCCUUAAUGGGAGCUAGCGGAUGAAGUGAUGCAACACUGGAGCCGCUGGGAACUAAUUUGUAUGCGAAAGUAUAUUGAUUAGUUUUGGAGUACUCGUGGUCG
experimentalSetup: 37 °C
readout: self-splicing fitness (ln)
No unit in the answer, only the number.

Q: Give reported self-splicing fitness (ln) value for `ACUUAGCAAUAUUACGCAGG`
A: -1.79

Q: Quote self-splicing fitness (ln) reported for `GCGCAGCAAUAUUACGGUAA` please.
A: 0.236

Q: Identify measured self-splicing fitness (ln) associated with `GAUCAGCAAUAUUACGUAUA`
A: -0.975

---
Q: Please report self-splicing fitness (ln) for the following sequence: `GUCUAGCAAUAUUACGGCUA`
A: -2.64

Q: For the sequence `GUUUAGCAAUAUUACGUUUA` , report self-splicing fitness (ln).
A: -0.853

Q: Return self-splicing fitness (ln) (reported value) for this sequence: `GCAAAGCAAUAUUACGCUGG`
A: -0.395

Q: Recall and state the measured self-splicing fitness (ln) for `AGUUAGCAAUAUUACGGAAA` .
A: -2.55

Q: Indicate the recorded self-splicing fitness (ln) value for this sequence: `UCUAAGCAAUAUUACGGAAG`
A: -1.49

Q: State its self-splicing fitness (ln) for this sequence: `UACUAGCAAUAUUACGUAUU`
A: -2.24

Q: Please report self-splicing fitness (ln) for the following sequence: `GCUCAGCAAUAUUACGCGAC`
A: 0.167

* * *

This listing pairs sequences with measured self-splicing fitness (ln).
test: self-splicing fitness, log relative to wild type (ln ratio); higher = more splicing; Tetrahymena group I intron in knt gene, E. coli kanamycin selection, DiMSum; sequences stand for … in CUCUCU…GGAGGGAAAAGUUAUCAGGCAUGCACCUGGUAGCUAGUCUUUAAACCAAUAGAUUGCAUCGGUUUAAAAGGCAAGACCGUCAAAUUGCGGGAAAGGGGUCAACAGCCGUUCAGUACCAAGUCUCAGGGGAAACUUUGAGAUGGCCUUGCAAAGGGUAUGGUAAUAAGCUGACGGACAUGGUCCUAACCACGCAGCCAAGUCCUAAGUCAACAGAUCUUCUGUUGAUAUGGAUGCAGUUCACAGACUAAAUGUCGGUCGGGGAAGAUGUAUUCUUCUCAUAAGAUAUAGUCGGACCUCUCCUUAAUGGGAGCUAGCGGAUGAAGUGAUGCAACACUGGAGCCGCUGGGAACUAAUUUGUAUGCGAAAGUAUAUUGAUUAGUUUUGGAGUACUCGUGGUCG
experimentalSetup: 30 °C
The response must contain the number and no unit.

Q: Supply self-splicing fitness (ln) value. Item: `UCCCAGCAAUAUUACGUGCC`
A: -4.06

Q: Answer with reported self-splicing fitness (ln) of `UCGCAGCAAUAUUACGCUCA`
A: -1.37

Q: State its self-splicing fitness (ln) for this sequence: `CGAUAGCAAUAUUACGUCUC`
A: -2.61

***
Q: Give the value of self-splicing fitness (ln) reported for the following: `CGGGAGCAAUAUUACGGAAA`
A: -3.53
